Assay: NCI Yeast Anticancer Drug Screen. Data for the rad50 strain (AID 155)
Details: S. cerevisiae rad50 strain growth inhibition; at 50.0 µM
About 79,000 compounds went through this panel and 15% of them were active in at least one assay; those are over-represented in the sample as a whole. Calls of active or inactive are those of the source. No stated cut-off is given here; in the data, active means growth inhibition above about 70%; inactive means the rest.
Hello, when you answer, please use one of the following outcomes: active, inactive

Known results for compounds:
- Cc1cccc2c1Oc1ccccc1C2N1C(=O)/C(=C/c2ccccc2Cl)SC1=S (stereo unspecified): inactive
- CC(=O)SC1C(=O)N(C)C(SC(C)=O)C(=O)N1C (stereo unspecified): active
- COC(=O)Cn1/c(=N\N=C(/C)c2ccc(C)cc2)sc2ccccc21: inactive
- O=C1c2ccccc2C(=O)c2c1cc(O)c(O)c2O: active
- O=NNc1ccc(Sc2ccc3ccccc3c2)cn1: inactive

input: Short answer needed: outcome of this test for "CC(=O)C(C(C)=O)C1C=CC=CC=C1" ?
output: active

input: Tell me the assay call for "O=C(Nc1ccccc1)OCCN=c1c2ccccc2ccc2ccccc12" please.
output: active
